TEST TARGET: hA3AR (Homo sapiens, UniProt P0DMS8)
Construct: expressed in transfected cells; host or cells: HeLa (HeLa-A3) cell membranes
Sequence (P0DMS8 whole entry): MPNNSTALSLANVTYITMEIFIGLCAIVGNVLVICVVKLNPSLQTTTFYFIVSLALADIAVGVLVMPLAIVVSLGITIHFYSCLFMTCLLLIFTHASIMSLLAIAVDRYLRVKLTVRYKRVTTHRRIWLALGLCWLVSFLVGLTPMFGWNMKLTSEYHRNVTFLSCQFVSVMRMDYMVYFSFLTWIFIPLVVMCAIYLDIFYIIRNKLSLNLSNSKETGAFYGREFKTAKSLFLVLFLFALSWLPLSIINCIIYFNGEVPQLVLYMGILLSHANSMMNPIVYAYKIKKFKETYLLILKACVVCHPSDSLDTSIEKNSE
ASSAY NOTES: Radioligand binding competition, [3H]NECA, membranes from HeLa-A3 cells
CONDITION: 1 μM, [3H]NECA, human HeLa cells, n = 2
PROPERTY MEASURED: % at 1 μM hA3 (percentage displacement of specific binding) (%)
Answers are plain numbers, in %.

Here are 8 compounds together with their reported answers.
# COMPOUND, UOM, RESULT
records = [
    ("CC1=C(C(=O)OC(C)C)C(c2ccco2)n2c(nc3cc(Cl)ccc32)N1 (stereo not drawn) [16j]", "%", 2),
    ("CC1=C(C(=O)OC(C)C)[C@H](c2ccoc2)n2c(nc3cc(Cl)ccc32)N1 [(S)-16l]", "%", 19),
    ("CC1=C(C(=O)OC(C)C)C(c2ccoc2)n2c(nc3cc(F)ccc32)N1 (stereo not drawn) [16d]", "%", 4),
    ("CC1=C(C(=O)OC(C)C)[C@H](c2ccco2)n2c(nc3cc(Cl)ccc32)N1 [(R)-16j]", "%", 5),
    ("CCOC(=O)C1=C(C)Nc2nc3cc(Cl)c(Cl)cc3n2C1c1ccsc1 (stereo not drawn) [14o]", "%", 1),
    ("CCOC(=O)C1=C(C)Nc2nc3cc(F)c(F)cc3n2C1c1cccs1 (stereo not drawn) [14e]", "%", 5),
    ("CC1=C(C(=O)OC(C)C)C(c2ccoc2)n2c(nc3cc(Cl)c(Cl)cc32)N1 (stereo not drawn) [14l]", "%", 8),
    ("CC1=C(C(=O)OC(C)C)C(c2ccoc2)n2c(nc3cc(Br)c(Br)cc32)N1 (stereo not drawn) [14t]", "%", 9),
]

Would you mind listing % at 1 μM hA3 (percentage displacement of specific binding) for each of the following compounds?
1. CC1=C(C(=O)OC(C)C)C(c2ccoc2)n2c(nc3cc(Cl)ccc32)N1 (stereo not drawn) [16l]
2. CCOC(=O)C1=C(C)Nc2nc3cc(F)c(F)cc3n2C1c1ccoc1 (stereo not drawn) [14c]
3. CC1=C(C(=O)OC(C)C)C(c2cocn2)n2c(nc3ccc(F)cc32)N1 (stereo not drawn) [17b]
4. CC1=C(C(=O)OC(C)C)C(c2ccsc2)n2c(nc3cc(Cl)ccc32)N1 (stereo not drawn) [16p]
5. CCOC(=O)C1=C(C)Nc2nc3cc(Br)ccc3n2C1c1ccoc1 (stereo not drawn) [16s]
6. CCOC(=O)C1=C(C)Nc2nc3cc(Br)c(Br)cc3n2C1c1ccco1 (stereo not drawn) [14q]

1. 1
2. 17
3. 22
4. 4
5. 25
6. 2

Would you mind listing % at 1 μM hA3 (percentage displacement of specific binding) for each of the following compounds?
1. CC1=C(C(=O)OC(C)C)C(c2ccsc2)n2c(nc3cc(Cl)c(Cl)cc32)N1 (stereo not drawn) [14p]
2. CCOC(=O)C1=C(C)Nc2nc3cc(F)ccc3n2C1c1ccsc1 (stereo not drawn) [16g]
3. CC1=C(C(=O)OC(C)C)[C@@H](c2ccco2)n2c(nc3cc(F)ccc32)N1 [(S)-16b]
4. CC1=C(C(=O)OC(C)C)C(c2ccco2)n2c(nc3ccc(Br)cc32)N1 (stereo not drawn) [15r]
5. CCOC(=O)C1=C(C)Nc2nc3ccc(Cl)cc3n2C1c1ccsc1 (stereo not drawn) [15o]
6. CC1=C(C(=O)OC(C)C)C(c2ccco2)n2c(nc3ccc(Cl)cc32)N1 (stereo not drawn) [15j]

6
3
12
6
3
5

For each entry beneath this line, provide reported % at 1 μM hA3 (percentage displacement of specific binding).
1. CC1=C(C(=O)OC(C)C)C(c2cccs2)n2c(nc3ccc(F)cc32)N1 (stereo not drawn) [15f]
2. CCOC(=O)C1=C(C)Nc2nc3cc(Br)c(Br)cc3n2C1c1ccsc1 (stereo not drawn) [14w]
3. CCOC(=O)C1=C(C)Nc2nc3cc(Br)ccc3n2[C@H]1c1ccoc1 [(S)-16s]
4. CC1=C(C(=O)OC(C)C)C(c2ccco2)n2c(nc3cc(Br)ccc32)N1 (stereo not drawn) [16r]
5. CCOC(=O)C1=C(C)Nc2nc3ccc(F)cc3n2C1c1ccco1 (stereo not drawn) [15a]
6. CCOC(=O)C1=C(C)Nc2nc3cc(Cl)ccc3n2C1c1ccoc1 (stereo not drawn) [16k]

1: 6; 2: 4; 3: 10; 4: 10; 5: 10; 6: 4

Provide the reported % at 1 μM hA3 (percentage displacement of specific binding) of each entry below, same order.
1. CC1=C(C(=O)OC(C)C)C(c2ccsc2)n2c(nc3cc(Br)ccc32)N1 (stereo not drawn) [16x]
2. CCOC(=O)C1=C(C)Nc2nc3cc(Br)ccc3n2C1c1cccs1 (stereo not drawn) [16u]
3. CC1=C(C(=O)OC(C)C)C(c2ccsc2)n2c(nc3cc(F)c(F)cc32)N1 (stereo not drawn) [14h]

[4, 6, 4]

###

TEST TARGET: hA1AR (Homo sapiens, UniProt P30542)
Sequence (P30542 1-326): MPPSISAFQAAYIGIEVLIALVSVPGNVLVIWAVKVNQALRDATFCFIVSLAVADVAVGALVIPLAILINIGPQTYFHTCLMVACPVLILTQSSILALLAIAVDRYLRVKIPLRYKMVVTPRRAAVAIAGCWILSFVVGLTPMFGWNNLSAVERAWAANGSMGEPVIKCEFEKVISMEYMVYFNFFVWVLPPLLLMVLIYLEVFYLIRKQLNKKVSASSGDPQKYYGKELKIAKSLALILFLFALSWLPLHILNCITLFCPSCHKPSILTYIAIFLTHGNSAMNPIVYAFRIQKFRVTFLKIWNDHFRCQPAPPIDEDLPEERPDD
ASSAY NOTES: Radioligand binding competition, [3H]DPCPX, membranes from CHO-A1 cells
CONDITION: 1 μM, [3H]DPCPX, human CHO cells, n = 2
PROPERTY MEASURED: % at 1 μM hA1 (percentage displacement of specific binding) (%)
One number for each entry, in %.

The cases that follow already have their % at 1 μM hA1 (percentage displacement of specific binding) on record.
# COMPOUND, RESULT
rows = [
    ("CC1=C(C(=O)OC(C)C)C(c2ccoc2)n2c(nc3cc(F)ccc32)N1 (centres unmarked) [16d]", 14),
    ("CCOC(=O)C1=C(C)Nc2nc3cc(Br)ccc3n2[C@H]1c1ccoc1 [(S)-16s]", 11),
    ("CCOC(=O)C1=C(C)Nc2nc3ccc(Br)cc3n2C1c1cccs1 (centres unmarked) [15u]", 1),
]

// for each compound in input: emit % at 1 μM hA1 (percentage displacement of specific binding)
1. CCOC(=O)C1=C(C)Nc2nc3cc(Cl)ccc3n2C1c1cccs1 (centres unmarked) [16m]
2. CC1=C(C(=O)OC(C)C)[C@@H](c2ccco2)n2c(nc3cc(Br)ccc32)N1 [(S)-16r]

[3, 32]

###

TEST TARGET: hA2BAR (Homo sapiens)
Construct: host or cells: HEK-293 (HEK-293-A2B) cell membranes
ASSAY NOTES: Radioligand binding competition, [3H]DPCPX, membranes from HEK-293-A2B cells
CONDITION: supplementary CSV, no unit printed (nM in Tables 2-5); read-out: Ki_hA2B
Experimental: All ligands reported in Tables 1–5 were obtained and tested as racemic mixtures. The whole set was evaluated in silico with a combination of a Rdkit[37] […] A brief description is given below. […] Non-specific binding was determined in the presence of 10 μM R-PIA. […] Non-specific binding was determined in the presence of 100 μM R-PIA. […] After the incubation time, membranes were washed and filtered and radioactivity was detected in a MicroBeta TriLux reader (PerkinElmer).
PROPERTY MEASURED: Ki (nM)
Numbers only, in nM.

Could you please provide reported Ki for CC1=C(C(=O)OC(C)C)C(c2cccs2)n2c(nc3cc(Br)ccc32)N1 (stereo not shown) [16v] ? Thanks!
115

###

TEST TARGET: hA2BAR (Homo sapiens, UniProt P29275)
Construct: host or cells: HEK-293 (HEK-293-A2B) cell membranes
Sequence (P29275 whole entry): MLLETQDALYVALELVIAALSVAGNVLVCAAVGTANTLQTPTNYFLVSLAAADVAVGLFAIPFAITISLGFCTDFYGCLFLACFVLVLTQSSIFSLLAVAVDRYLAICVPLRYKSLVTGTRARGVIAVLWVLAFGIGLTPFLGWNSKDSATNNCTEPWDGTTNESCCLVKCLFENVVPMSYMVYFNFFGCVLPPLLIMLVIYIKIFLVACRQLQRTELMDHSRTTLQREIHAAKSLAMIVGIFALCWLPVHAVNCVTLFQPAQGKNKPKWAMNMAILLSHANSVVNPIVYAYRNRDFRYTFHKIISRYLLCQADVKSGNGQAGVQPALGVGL
ASSAY NOTES: Radioligand binding competition, [3H]DPCPX, membranes from HEK-293-A2B cells
CONDITION: displacement of specific [3H]DPCPX binding in human HEK-293 cells, n = 3; read-out: Ki hA2B
Labelling field: enter Condition met if recorded Ki is less than 100 nM. Enter Condition not met if it equals or exceeds that cut-off.

Answered cases to consult:
# COMPOUND, TEST TARGET, CATEGORY LABEL
rows = [
    ("CCOC(=O)C1=C(C)Nc2nc3ccc(F)cc3n2C1c1ccco1 (stereo not shown) [15a]", "hA2BAR (Homo sapiens, UniProt P29275)", "Condition met"),
    ("CC1=C(C(=O)OC(C)C)C(c2ccsc2)n2c(nc3cc(F)ccc32)N1 (stereo not shown) [16h]", "hA2BAR (Homo sapiens, UniProt P29275)", "Condition met"),
    ("CC1=C(C(=O)OC(C)C)[C@@H](c2ccco2)n2c(nc3cc(Cl)ccc32)N1 [(S)-16j]", "hA2BAR (Homo sapiens, UniProt P29275)", "Condition met"),
    ("CC1=C(C(=O)OC(C)C)[C@@H](c2ccco2)n2c(nc3ccccc32)N1 [(S)-ISAM-140]", "hA2BAR (Homo sapiens, UniProt P29275)", "Condition met"),
    ("CCOC(=O)C1=C(C)Nc2nc3ccc(Cl)cc3n2C1c1cocn1 (stereo not shown) [17c]", "hA2BAR (Homo sapiens, UniProt P29275)", "Condition met"),
    ("CC1=C(C(=O)OC(C)C)C(c2ccsc2)n2c(nc3ccc(F)cc32)N1 (stereo not shown) [15h]", "hA2BAR (Homo sapiens, UniProt P29275)", "Condition not met"),
    ("CC1=C(C(=O)OC(C)C)C(c2cccs2)n2c(nc3cc(Cl)ccc32)N1 (stereo not shown) [16n]", "hA2BAR (Homo sapiens, UniProt P29275)", "Condition not met"),
    ("CCOC(=O)C1=C(C)Nc2nc3cc(F)ccc3n2C1c1cocn1 (stereo not shown) [18a]", "hA2BAR (Homo sapiens, UniProt P29275)", "Condition met"),
]

Does the reported Ki of CC1=C(C(=O)OC(C)C)[C@@H](c2ccco2)n2c(nc3cc(Br)ccc32)N1 [(S)-16r] stay below 100 nM?
Condition met

Does the reported Ki of CC1=C(C(=O)OC(C)C)C(c2ccsc2)n2c(nc3cc(Cl)c(Cl)cc32)N1 (stereo not shown) [14p] stay below 100 nM?
Condition not met
